assay: Single rising dose pharmacokinetics in beagle dogs; assay type: in vivo, beagle dog; settings: male, beagle, dog, plasma, sc, 25 mg/kg
Peptide text beside a SMILES is read from it.
Reported property: half-life (h)
Just the number in h, nothing appended.

IN: Which measured half-life value corresponds to CC(C)[C@@H](NC(=O)[C@H](N)Cc1ccc(O)cc1)C(=O)N[C@H](CC(=O)O)C(=O)N[C@H](CCCCN)C(=O)N[C@H](CCCNC(=N)N)C(=O)O [FC-12738, (D-Tyr)-(D-Val)-(D-Asp)-(D-Lys)-(D-Arg)] (HELM PEPTIDE1{[dY].[dV].[dD].[dK].[dR]}$$$$V2.0) ?
OUT: 2.01

* * *

experiment: Bidirectional permeability and efflux in Caco-2 cells; assay type: in vitro ADME; settings: human, Caco-2
Peptide text beside a SMILES is read from it.
Reported property: efflux ratio at 120 min, 100 μM

IN: Which measured efflux ratio at 120 min, 100 μM value corresponds to CC(C)[C@@H](NC(=O)[C@H](N)Cc1ccc(O)cc1)C(=O)N[C@H](CC(=O)O)C(=O)N[C@H](CCCCN)C(=O)N[C@H](CCCNC(=N)N)C(=O)O [FC-12738, (D-Tyr)-(D-Val)-(D-Asp)-(D-Lys)-(D-Arg)] (HELM PEPTIDE1{[dY].[dV].[dD].[dK].[dR]}$$$$V2.0) ?
OUT: 1.24

* * *

assay: Excretion study in SD rats following single subcutaneous administration; format: in vivo, SD rat; details: male, Sprague-Dawley, rat, urine + feces, sc, 10 mg/kg
Peptide text beside a SMILES is read from it.
Reported property: dose excreted at 72 h (%)
Just the number in %, nothing appended.

IN: Which measured dose excreted at 72 h value corresponds to CC(C)[C@@H](NC(=O)[C@H](N)Cc1ccc(O)cc1)C(=O)N[C@H](CC(=O)O)C(=O)N[C@H](CCCCN)C(=O)N[C@H](CCCNC(=N)N)C(=O)O [FC-12738, (D-Tyr)-(D-Val)-(D-Asp)-(D-Lys)-(D-Arg)] (HELM PEPTIDE1{[dY].[dV].[dD].[dK].[dR]}$$$$V2.0) ?
OUT: 88.5

* * *

assay: Tissue distribution in SD rats after single subcutaneous injection; format: in vivo, SD rat; conditions: male, SD, rat, lung, sc, 10 mg/kg
Peptide text beside a SMILES is read from it.
Reported property: tissue level at time at 0.5 h (ng/g)
Just the number in ng/g, nothing appended.

IN: Which measured tissue level at time at 0.5 h value corresponds to CC(C)[C@@H](NC(=O)[C@H](N)Cc1ccc(O)cc1)C(=O)N[C@H](CC(=O)O)C(=O)N[C@H](CCCCN)C(=O)N[C@H](CCCNC(=N)N)C(=O)O [FC-12738, (D-Tyr)-(D-Val)-(D-Asp)-(D-Lys)-(D-Arg)] (HELM PEPTIDE1{[dY].[dV].[dD].[dK].[dR]}$$$$V2.0) ?
OUT: 5330

* * *

assay: Single-dose pharmacokinetics in beagle dogs; format: in vivo, beagle dog; conditions: male, beagle, dog, plasma, iv, 1 mg/kg
Peptide text beside a SMILES is read from it.
Reported property: clearance (mL/min/kg)
Just the number in mL/min/kg, nothing appended.

IN: Which measured clearance value corresponds to CC(C)[C@@H](NC(=O)[C@H](N)Cc1ccc(O)cc1)C(=O)N[C@H](CC(=O)O)C(=O)N[C@H](CCCCN)C(=O)N[C@H](CCCNC(=N)N)C(=O)O [FC-12738, (D-Tyr)-(D-Val)-(D-Asp)-(D-Lys)-(D-Arg)] (HELM PEPTIDE1{[dY].[dV].[dD].[dK].[dR]}$$$$V2.0) ?
OUT: 5.85

* * *

assay: In vitro blood to plasma partitioning; assay type: in vitro ADME, dog; conditions: dog, whole blood
Peptide text beside a SMILES is read from it.
Reported property: tissue to tissue ratio at 1 h, 0.2 µM

IN: Which measured tissue to tissue ratio at 1 h, 0.2 µM value corresponds to CC(C)[C@@H](NC(=O)[C@H](N)Cc1ccc(O)cc1)C(=O)N[C@H](CC(=O)O)C(=O)N[C@H](CCCCN)C(=O)N[C@H](CCCNC(=N)N)C(=O)O [FC-12738, (D-Tyr)-(D-Val)-(D-Asp)-(D-Lys)-(D-Arg)] (HELM PEPTIDE1{[dY].[dV].[dD].[dK].[dR]}$$$$V2.0) ?
OUT: 0.57

* * *

test: Plasma and brain levels in male CD-1 mice after a single IP dose; assay type: in vivo, CD-1 mouse; conditions: male, CD-1, mouse, brain, ip, 10 mg/kg
Peptide text beside a SMILES is read from it.
Reported property: tissue level at time at 4 h (ng/g)
Just the number in ng/g, nothing appended.

IN: Which measured tissue level at time at 4 h value corresponds to CC(C)[C@@H](NC(=O)[C@H](N)Cc1ccc(O)cc1)C(=O)N[C@H](CC(=O)O)C(=O)N[C@H](CCCCN)C(=O)N[C@H](CCCNC(=N)N)C(=O)O [FC-12738, (D-Tyr)-(D-Val)-(D-Asp)-(D-Lys)-(D-Arg)] (HELM PEPTIDE1{[dY].[dV].[dD].[dK].[dR]}$$$$V2.0) ?
OUT: 5.39

* * *

assay: Tissue distribution in SD rats after single subcutaneous injection; assay type: in vivo, SD rat; details: male, SD, rat, small intestine, sc, 10 mg/kg
Peptide text beside a SMILES is read from it.
Reported property: tissue level at time at 8 h (ng/g)
Just the number in ng/g, nothing appended.

IN: Which measured tissue level at time at 8 h value corresponds to CC(C)[C@@H](NC(=O)[C@H](N)Cc1ccc(O)cc1)C(=O)N[C@H](CC(=O)O)C(=O)N[C@H](CCCCN)C(=O)N[C@H](CCCNC(=N)N)C(=O)O [FC-12738, (D-Tyr)-(D-Val)-(D-Asp)-(D-Lys)-(D-Arg)] (HELM PEPTIDE1{[dY].[dV].[dD].[dK].[dR]}$$$$V2.0) ?
OUT: 188

* * *

assay: Excretion study in SD rats following single subcutaneous administration; type: in vivo, SD rat; conditions: male, Sprague-Dawley, rat, urine, sc, 10 mg/kg
Peptide text beside a SMILES is read from it.
Reported property: dose excreted at 72 h (%)
Just the number in %, nothing appended.

IN: Which measured dose excreted at 72 h value corresponds to CC(C)[C@@H](NC(=O)[C@H](N)Cc1ccc(O)cc1)C(=O)N[C@H](CC(=O)O)C(=O)N[C@H](CCCCN)C(=O)N[C@H](CCCNC(=N)N)C(=O)O [FC-12738, (D-Tyr)-(D-Val)-(D-Asp)-(D-Lys)-(D-Arg)] (HELM PEPTIDE1{[dY].[dV].[dD].[dK].[dR]}$$$$V2.0) ?
OUT: 86.4

* * *

assay: Plasma stability; assay type: in vitro ADME, human; details: human, plasma
Peptide text beside a SMILES is read from it.
Reported property: remaining at 0.5 h, 2 μM (%)
Just the number in %, nothing appended.

IN: Which measured remaining at 0.5 h, 2 μM value corresponds to CC(C)[C@@H](NC(=O)[C@H](N)Cc1ccc(O)cc1)C(=O)N[C@H](CC(=O)O)C(=O)N[C@H](CCCCN)C(=O)N[C@H](CCCNC(=N)N)C(=O)O [FC-12738, (D-Tyr)-(D-Val)-(D-Asp)-(D-Lys)-(D-Arg)] (HELM PEPTIDE1{[dY].[dV].[dD].[dK].[dR]}$$$$V2.0) ?
OUT: 93.6

* * *

experiment: Single-dose pharmacokinetics in SD rats; assay type: in vivo, SD rat; details: male, SD, rat, plasma, sc, 10 mg/kg
Peptide text beside a SMILES is read from it.
Reported property: half-life
Provide a numeric answer, followed by its unit.

IN: Which measured half-life value corresponds to CC(C)[C@@H](NC(=O)[C@H](N)Cc1ccc(O)cc1)C(=O)N[C@H](CC(=O)O)C(=O)N[C@H](CCCCN)C(=O)N[C@H](CCCNC(=N)N)C(=O)O [FC-12738, (D-Tyr)-(D-Val)-(D-Asp)-(D-Lys)-(D-Arg)] (HELM PEPTIDE1{[dY].[dV].[dD].[dK].[dR]}$$$$V2.0) ?
OUT: 40.8 min

* * *

assay: Tissue distribution in SD rats after single subcutaneous injection; type: in vivo, SD rat; settings: male, SD, rat, liver, sc, 10 mg/kg
Peptide text beside a SMILES is read from it.
Reported property: tissue level at time at 2 h
Provide a numeric answer, followed by its unit.

IN: Which measured tissue level at time at 2 h value corresponds to CC(C)[C@@H](NC(=O)[C@H](N)Cc1ccc(O)cc1)C(=O)N[C@H](CC(=O)O)C(=O)N[C@H](CCCCN)C(=O)N[C@H](CCCNC(=N)N)C(=O)O [FC-12738, (D-Tyr)-(D-Val)-(D-Asp)-(D-Lys)-(D-Arg)] (HELM PEPTIDE1{[dY].[dV].[dD].[dK].[dR]}$$$$V2.0) ?
OUT: 616 ng/g
